Below, each entry is listed alongside its reported Population Normal (%).
# Tested on: HEK-293T
# test-summary: Multiplex assay against HEK293T
# Type: toxicity, cell-based
# condition-parameters: human, 48 h, 10 µM, compound concentration 10 uM, replicate 1
Express it in %; write the number only.

- compound: "CN(c1cc(C(F)(F)F)nc(OCCC(=O)O)n1)c1cccc2c1CCC2"
  system: "HEK-293T"
  endpoint-result: 93
- compound: "CN1CCN(Cc2ccc(-c3cnc4[nH]cc(-c5ccc6[nH]ccc6c5)c4c3)cc2)CC1"
  system: "HEK-293T"
  endpoint-result: 68
- compound: "C=CC(=O)Nc1cc(-n2c(=O)ccc3cnc4ccc(-c5ccc(NS(C)(=O)=O)cc5)cc4c32)ccc1C"
  system: "HEK-293T"
  endpoint-result: 81

Reported Population Normal (%) of N#CCNC(=O)c1ccc(-c2ccnc(Nc3ccc(N4CCOCC4)cc3)n2)cc1 [MOMELOTINIB] : 91

Reported Population Normal (%) of CCCc1cc(C)[nH]c(=O)c1CNC(=O)c1cc(-c2ccc(N3CCN(C(C)C)CC3)nc2)cc2c1cnn2C(C)C : 71

Reported Population Normal (%) of CC(Cc1ccc(O)c(O)c1)C(C)Cc1ccc(O)c(O)c1 (stereo unspecified) [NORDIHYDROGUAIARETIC ACID] : 88

---

# Test system: HEK-293T
# test-summary: Incucyte cell viability with HEK293T; further: filed as whole numbers so only -1 and 0 and 1 occur
# Type: toxicity, cell-based
# condition-parameters: human, 24 h, 10 µM, compound concentration 10 uM, replicate number 2, timepoint 24 hours
property: Growth Rate
Lab note: jot down the number only; don't add units.

Some entries whose results are on file:
- compound: "CC(C)c1ccc(CC(=O)N2CCC[C@@H](c3cccc(OC(C)(C)C(=O)O)c3)C2)cc1"
  system: "HEK-293T"
  endpoint-result: 1
- compound: "CN(CCOc1ccc(CC2SC(=O)NC2=O)cc1)c1ccccn1 (stereo not given)"
  system: "HEK-293T"
  endpoint-result: 0
- compound: "Cn1cc(Cl)c2c(Oc3c(F)cc(Nc4cc(Cl)nc(N)n4)cc3F)ccnc21"
  system: "HEK-293T"
  endpoint-result: 0
- compound: "Cc1ccc2[nH]c(CNCCCc3ccncc3)cc(=O)c2c1 [UCSF924NC]"
  system: "HEK-293T"
  endpoint-result: 1

The measured Growth Rate that CCCCN(Cc1ccccc1)C(=O)c1ccc(S(=O)(=O)Nc2ccccc2)cc1 showed for HEK-293T is 1

The measured Growth Rate that C[C@H]1C[C@H]2[C@@H]3CCC4=CC(=O)C=C[C@]4(C)[C@@]3(Cl)[C@@H](O)C[C@]2(C)[C@@]1(O)C(=O)CO showed for HEK-293T is 0

---

# System: HEK-293T
# test-summary: Multiplex assay against HEK293T
# Assay type: toxicity, cell-based
# condition-parameters: human, 48 h, 10 µM, compound concentration 10 uM, replicate 1
Mark each entry fulfilled if its Population Hoechst High Intensity Objects (%) sits below 20%, and not fulfilled for all others.

Study these solved cases before continuing.
- compound: "CCCCN(CC)c1nc(C)nc2c1c(C)cn2-c1c(C)cc(C)cc1C.Cl"
  system: "HEK-293T"
  label-class: "fulfilled"
- compound: "CN1C(=O)[C@@H](NC(=O)c2cc3ccccc3[nH]2)N=C(c2ccccc2)c2ccccc21 [DEVAZEPIDE]"
  system: "HEK-293T"
  label-class: "not fulfilled"
- compound: "CC(Cc1ccc(O)c(O)c1)C(C)Cc1ccc(O)c(O)c1 (configuration not stated) [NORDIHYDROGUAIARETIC ACID]"
  system: "HEK-293T"
  label-class: "fulfilled"
- compound: "CC(/C=C1\\SC(=S)N(CCCC(=O)Nc2ccc(C(=O)O)c(O)c2)C1=O)=C\\c1ccccc1"
  system: "HEK-293T"
  label-class: "fulfilled"
- compound: "Oc1cccc(-c2nc(N3CCOCC3)c3oc4ncccc4c3n2)c1"
  system: "HEK-293T"
  label-class: "fulfilled"

## Task Does CC(C)c1cc(Nc2nc(N3CCC[C@H](N)C3)ncc2C(N)=O)cc(C(C)C)n1 have Population Hoechst High Intensity Objects (%) strictly under 20%?
## Result fulfilled

## Task Does CN1CCN(Cc2ccc(-c3cnc4[nH]cc(-c5ccc6[nH]ccc6c5)c4c3)cc2)CC1 have Population Hoechst High Intensity Objects (%) strictly under 20%?
## Result not fulfilled

## Task Does CCCCCNC(=N)N/N=C/c1c[nH]c2ccc(OC)cc12.O=C(O)/C=C\C(=O)O [TEGASEROD MALEATE] have Population Hoechst High Intensity Objects (%) strictly under 20%?
## Result not fulfilled

## Task Does Cl.NC[C@@H]1O[C@H](C23CC4CC(CC(C4)C2)C3)Cc2c1ccc(O)c2O have Population Hoechst High Intensity Objects (%) strictly under 20%?
## Result fulfilled

## Task Does Cc1c(Nc2ccc(S(=O)(=O)N3CCN(C)CC3)cc2F)nc2ccc(-c3cnn(C4CC4)c3)cn2c1=O have Population Hoechst High Intensity Objects (%) strictly under 20%?
## Result not fulfilled

## Task Does CN(c1cc(C(F)(F)F)nc(OCCC(=O)O)n1)c1cccc2c1CCC2 have Population Hoechst High Intensity Objects (%) strictly under 20%?
## Result fulfilled

## Task Does c1ccc(-c2oc3ncnc(NC[C@@H]4CCCO4)c3c2-c2ccccc2)cc1 have Population Hoechst High Intensity Objects (%) strictly under 20%?
## Result not fulfilled

---

# Test system: Fibroblast
# test-summary: Multiplex assay against human fibroblast
# Assay type: toxicity, cell-based
# condition-parameters: 24 h, 1 µM, compound concentration 1 uM, replicate 1
# binarize Population Tubulin-Different-Phenotype (%): threshold 30% inclusive, high side true, low side false

Study these solved cases before continuing.
- compound: "Cl.NC[C@@H]1O[C@H](C23CC4CC(CC(C4)C2)C3)Cc2c1ccc(O)c2O"
  label-class: "false"
- compound: "CC[C@@H]1C(=O)N(C)c2cnc(Nc3ccc(C(=O)NC4CCN(C)CC4)cc3OC)nc2N1C1CCCC1 [BI-2536]"
  label-class: "false"
- compound: "C[C@@H](Oc1cc(-n2cnc3ccc(CN4CCN(C)CC4)cc32)sc1C(N)=O)c1ccccc1C(F)(F)F [GSK-461364]"
  label-class: "true"
- compound: "CCCCCNC(=N)N/N=C/c1c[nH]c2ccc(OC)cc12.O=C(O)/C=C\\C(=O)O [TEGASEROD MALEATE]"
  label-class: "true"
- compound: "Cc1c(Nc2ccc(S(=O)(=O)N3CCN(C)CC3)cc2F)nc2ccc(-c3cnn(C4CC4)c3)cn2c1=O"
  label-class: "false"

## Task I'd appreciate it if you could say whether CC(/C=C1\SC(=S)N(CCCC(=O)Nc2ccc(C(=O)O)c(O)c2)C1=O)=C\c1ccccc1 has Population Tubulin-Different-Phenotype (%) at least equal to 30%.
## Result true

## Task I'd appreciate it if you could say whether Cl.Cn1c2c(c3ccc(Cl)c(Cl)c31)C(C#N)C1(CCNCC1)NC2=O (centres undefined) has Population Tubulin-Different-Phenotype (%) at least equal to 30%.
## Result false

## Task I'd appreciate it if you could say whether CC(C)c1cc(Nc2nc(N3CCC[C@H](N)C3)ncc2C(N)=O)cc(C(C)C)n1 has Population Tubulin-Different-Phenotype (%) at least equal to 30%.
## Result true

---

# Test system: HEK-293T
# test-summary: Multiplex assay against HEK293T
# Format: toxicity, cell-based
# condition-parameters: human, 48 h, 10 µM, compound concentration 10 uM, replicate 2
# binarize Population Healthy Nuclei (%): threshold 60% inclusive, high side YES, low side NO

- smiles-data: "Cc1ccc(S(=O)(=O)NC2c3ccccc3Oc3ccccc32)cc1"
  label-class: "YES"
- smiles-data: "CC(C)c1cc(Nc2nc(N3CCC[C@H](N)C3)ncc2C(N)=O)cc(C(C)C)n1"
  label-class: "NO"
- smiles-data: "CN1CCN(Cc2ccc(-c3cnc4[nH]cc(-c5ccc6[nH]ccc6c5)c4c3)cc2)CC1"
  label-class: "NO"
- smiles-data: "C=CC(=O)Nc1cc(-n2c(=O)ccc3cnc4ccc(-c5ccc(NS(C)(=O)=O)cc5)cc4c32)ccc1C"
  label-class: "YES"
- smiles-data: "CC(/C=C1\\SC(=S)N(CCCC(=O)Nc2ccc(C(=O)O)c(O)c2)C1=O)=C\\c1ccccc1"
  label-class: "YES"

Read the next record carefully.
## Task I'd appreciate it if you could say whether Cc1c(P(=S)(c2ccccc2)c2ccccc2)n2ccccc2[n+]1C/C=C/c1ccccc1.[Br-] has Population Healthy Nuclei (%) at least equal to 60%.
## Result NO

---

Below, each entry is listed alongside its reported Growth Rate.
# System: Fibroblast
# test-summary: Incucyte cell viability with human fibroblast; further: filed as whole numbers so only -1 and 0 and 1 occur
# Format: toxicity, cell-based
# condition-parameters: 18 h, 10 µM, compound concentration 10 uM, replicate number 2, timepoint 18 hours
Lab note: jot down the number only; don't add units.

Some entries whose results are on file:
- compound: "COc1ccc2c(c1)O[C@H](c1ccc(OC)c(OC)c1)C[C@@H]2NC(=O)C1(c2ccc3c(c2)OC(F)(F)O3)CC1 [A-1596584]"
  property: "Growth Rate"
  endpoint-result: 0
- compound: "CCCOc1ccn2c(C(C)=O)cc(-c3cccc(OC)c3)c2c1"
  property: "Growth Rate"
  endpoint-result: 0
- compound: "NC(=O)[C@@H]1CCCN1C(=O)[C@H](Cc1cnc[nH]1)NC(=O)[C@@H]1CCC(=O)N1 [PROTIRELIN]"
  property: "Growth Rate"
  endpoint-result: 0
- compound: "C=CC(=O)Nc1cc(-n2c(=O)ccc3cnc4ccc(-c5ccc(NS(C)(=O)=O)cc5)cc4c32)ccc1C"
  property: "Growth Rate"
  endpoint-result: 0

Pending compound:
Reported Growth Rate of COc1ncc(F)cc1CNc1ccc(Cc2c[nH]c3ncc(C)cc23)c(F)n1 [PLX-5622] : 1

meta.source: ChEMBL document CHEMBL4689842
